Where do these numbers come from? They come from patent US20250195521A1.

- ASSAY_TARGET: KRAS G13D (Homo sapiens (Human), UniProt P01116+P62937, G13D)
- Sequence (P01116 other isoform, or with tags, fused parts or gaps G13D, one chain of several): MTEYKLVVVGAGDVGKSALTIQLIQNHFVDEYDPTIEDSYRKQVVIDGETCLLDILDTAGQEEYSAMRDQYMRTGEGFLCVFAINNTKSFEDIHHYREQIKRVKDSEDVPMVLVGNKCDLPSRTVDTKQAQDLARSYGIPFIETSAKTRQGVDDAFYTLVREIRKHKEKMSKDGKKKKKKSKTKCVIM
- ASSAY_DETAILS: Ras-Raf disruption/FRET/MOA assay (BRAF RBD, Cyclophilin A)
- Assay type: biochemical
- MEASUREMENT_CONTEXT: read-out: KRAS G13D FRET data IC50
As shown below, each of these molecules has a reported IC50 value.

CCn1c(-c2cnccc2COC)c2c3cc(ccc31)-c1cc(O)cc(c1)C[C@H](NC(=O)[C@H](C(C)C)N(C)C(=O)C1(C)COC1)C(=O)N1CCC[C@H](N1)C(=O)OCC(C)(C)C2 [Compound A49]: 1000 to 10000 nM

input: # get_value(readout='IC50', item= CCn1c(-c2cnccc2COC)c2c3cc(ccc31)-c1cc(O)cc(c1)C[C@H](NC(=O)[C@H](C(C)C)N(C)c1ncco1)C(=O)N1CCC[C@H](N1)C(=O)OCC(C)(C)C2 [Compound A52] )
output: 1000 to 10000 nM

input: For CCn1c(-c2cccnc2[C@H](C)OC)c2c3cc(ccc31)-c1csc(n1)C[C@H](NC(=O)[C@H](C(C)C)N(C)C(=O)N1CCOC3(COC3)C1)C(=O)N1CCC[C@H](N1)C(=O)OCC(C)(C)C2 [Compound A475] , what is its reported IC50?
output: 100 to 1000 nM

input: Need IC50, item CCn1c(-c2cccnc2COC)c2c3cc(ccc31)-c1cc(O)cc(c1)C[C@H](NC(=O)[C@H](C(C)C)N(C)C(=O)[C@H](N)CCCNC(=N)N)C(=O)N1CCC[C@H](N1)C(=O)OCC(C)(C)C2 [Compound A48]
output: 100 to 1000 nM

input: I am curious: what IC50 value has been reported for CCn1c(-c2cccnc2[C@H](C)OC)c2c3cc(ccc31)-c1cccc(c1)C[C@H](NC(=O)[C@H](C(C)C)N(C)C(=O)N1CC(OC)C1)C(=O)N1CCC[C@H](N1)C(=O)OCC(C)(C)C2 [Compound A355] ?
output: 1000 to 10000 nM

input: Would you kindly share the measured IC50 for CCn1c(-c2cccnc2[C@H](C)OC)c2c3cc(ccc31)-c1cc(O)cc(c1)C[C@H](NC(=O)[C@H](C(C)C)N(C)C(=O)[C@H]1CC[C@@H]1N)C(=O)N1CCC[C@H](N1)C(=O)OCC(C)(C)C2 [Compound A392] ?
output: 10 to 100 nM

input: Requested field: IC50. Item: CCn1c(-c2cccnc2[C@H](C)OC)c2c3cc(ccc31)-c1csc(n1)C[C@H](NC(=O)[C@H](C(C)C)N(C)C(=O)N1C[C@@H]3[C@@H](C1)OCCN3C)C(=O)N1CCC[C@H](N1)C(=O)OCC(C)(C)C2 [Compound A472]
output: 1000 to 10000 nM

input: Query: IC50; subject: CCn1c(-c2cnccc2COC)c2c3cc(ccc31)-c1cc(O)cc(c1)C[C@H](NC(=O)[C@H](C(C)C)N(C)C(=O)CCCCN)C(=O)N1CCC[C@H](N1)C(=O)OCC(C)(C)C2 [Compound A66]
output: 100 to 1000 nM

input: Consider the molecule shown here: CCN(C)C(=O)N(C)[C@H](C(=O)N[C@H]1Cc2nc(cs2)-c2ccc3c(c2)c(c(-c2cccnc2[C@H](C)OC)n3CC)CC(C)(C)COC(=O)[C@@H]2CCCN(N2)C1=O)C(C)C [Compound A336] What is its recorded IC50?
output: 100 to 1000 nM

====

This listing pairs compounds with measured IC50.
- ASSAY_TARGET: KRAS G12S (Homo sapiens (Human), UniProt P01116+P62937, G12S)
- Sequence (P01116 other isoform, or with tags, fused parts or gaps G12S, one chain of several): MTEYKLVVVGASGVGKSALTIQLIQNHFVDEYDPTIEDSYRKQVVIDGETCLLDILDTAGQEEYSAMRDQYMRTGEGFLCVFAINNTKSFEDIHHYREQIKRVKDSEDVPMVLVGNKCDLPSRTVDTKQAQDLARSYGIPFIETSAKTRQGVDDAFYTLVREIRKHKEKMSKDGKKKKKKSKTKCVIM
- ASSAY_DETAILS: Ras-Raf disruption/FRET/MOA assay (BRAF RBD, Cyclophilin A)
- Type: biochemical
- MEASUREMENT_CONTEXT: read-out: KRAS G12S FRET IC50

CCn1c(-c2cccnc2[C@H](C)OC)c2c3cc(ccc31)-c1cc(O)cc(c1)C[C@H](NC(=O)[C@H](C(C)C)N(C)C(=O)C1CC1)C(=O)N1CCC[C@H](N1)C(=O)OCC(C)(C)C2: 10 to 100 nM
CCn1c(-c2cc(N3CCN(C)CC3)cnc2[C@H](C)OC)c2c3cc(ccc31)-c1csc(n1)C[C@H](NC(=O)[C@H](C(C)C)N(C)C(=O)[C@H]1CCCS1(=O)=O)C(=O)N1CCC[C@H](N1)C(=O)OCC(C)(C)C2: 1000 to 10000 nM
CCn1c(-c2cccnc2[C@H](C)OC)c2c3cc(ccc31)-c1csc(n1)C[C@H](NC(=O)[C@H](C(C)C)N(C)C(=O)N1CC[C@@H]1CN)C(=O)N1CCC[C@H](N1)C(=O)OCC(C)(C)C2: 10 to 100 nM

input: // query IC50 value for entry CCn1c(-c2cccnc2[C@H](C)OC)c2c3cc(ccc31)-c1csc(n1)C[C@H](NC(=O)[C@H](C(C)C)N(C)C(=O)N1CC(OC)C1)C(=O)N1CCC[C@H](N1)C(=O)OCC(C)(C)C2 [Compound A354]
output: 100 to 1000 nM

input: Please report the recorded IC50 for `CCn1c(-c2cccnc2[C@H](C)OC)c2c3cc(ccc31)-c1cc(O)cc(c1)C[C@H](NC(=O)[C@H](C(C)C)N(C)C(=O)[C@H]1CCN(C(C)=O)C1)C(=O)N1CCC[C@H](N1)C(=O)NCC(C)(C)C2` .
output: 100 to 1000 nM

input: // IC50 lookup, key: `CCn1c(-c2cccnc2[C@H](C)OC)c2c3cc(ccc31)-c1csc(n1)C[C@H](NC(=O)[C@H](C(C)C)N(C)C(=O)N1CC[C@@H]3CN(C)C[C@@H]31)C(=O)N1CCC[C@H](N1)C(=O)OCC(C)(C)C2`
output: 1000 to 10000 nM

input: Which IC50 is listed for `CCn1c(-c2cnccc2COC)c2c3cc(ccc31)-c1cc(O)cc(c1)C[C@H](NC(=O)[C@H](C(C)C)N(C)C(=O)C1CN(C)C1)C(=O)N1CCC[C@H](N1)C(=O)OCC(C)(C)C2` ?
output: 100 to 1000 nM

input: Recorded IC50 of `CCn1c(-c2cnccc2COC)c2c3cc(ccc31)-c1cc(O)cc(c1)C[C@H](NC(=O)[C@H](C(C)C)N(C)C(=O)c1ncc[nH]1)C(=O)N1CCC[C@H](N1)C(=O)OCC(C)(C)C2` , please.
output: 100 to 1000 nM

input: Which IC50 value belongs to `CCn1c(-c2cccnc2[C@H](C)OC)c2c3cc(ccc31)-c1cc(O)cc(c1)C[C@H](NC(=O)[C@H](C(C)C)N(C)C(=O)[C@@H]1CN(C(=O)OC)C[C@@H]1C)C(=O)N1CCC[C@H](N1)C(=O)OCC(C)(C)C2` ?
output: 10 to 100 nM

====

Attribute: pIC50
- ASSAY_TARGET: KRAS WT (Homo sapiens (Human), UniProt P01116+P62937)
- Sequence (P01116 other isoform, or with tags, fused parts or gaps): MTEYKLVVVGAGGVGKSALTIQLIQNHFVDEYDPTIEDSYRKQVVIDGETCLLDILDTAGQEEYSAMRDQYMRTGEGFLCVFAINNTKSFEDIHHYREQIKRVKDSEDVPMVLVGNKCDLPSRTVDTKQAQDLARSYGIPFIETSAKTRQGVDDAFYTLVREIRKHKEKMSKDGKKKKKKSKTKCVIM
- Sequence (P62937 whole entry): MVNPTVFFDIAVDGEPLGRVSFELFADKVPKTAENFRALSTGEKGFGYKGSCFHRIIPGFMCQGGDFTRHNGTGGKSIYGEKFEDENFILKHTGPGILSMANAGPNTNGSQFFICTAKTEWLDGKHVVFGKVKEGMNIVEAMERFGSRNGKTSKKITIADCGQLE
- ASSAY_DETAILS: Ras-Raf disruption/FRET/MOA assay (BRAF RBD, Cyclophilin A)
- Type: biochemical
- MEASUREMENT_CONTEXT: read-out: KRAS WT FRET data IC50
pIC50: −log10 of the molar value.

See these solved cases before continuing.
CCn1c(-c2cccnc2[C@H](C)OC)c2c3cc(ccc31)-c1csc(n1)C[C@H](NC(=O)[C@H](C(C)C)N(C)S(=O)(=O)N1CC(OC)C1)C(=O)N1CCC[C@H](N1)C(=O)OCC(C)(C)C2 [Compound A322]: 6.00 to 7.00
CCn1c(-c2cccnc2[C@H](C)OC)c2c3cc(ccc31)-c1csc(n1)C[C@H](NC(=O)[C@H](C(C)C)N(C)C(=O)N1CC[C@@H]3CN(C)C[C@@H]31)C(=O)N1CCC[C@H](N1)C(=O)OCC(C)(C)C2 [Compound A470]: 5.00 to 6.00
CCn1c(-c2cccnc2[C@H](C)OC)c2c3cc(ccc31)-c1cc(O)cc(c1)C[C@H](NC(=O)[C@H](C(C)C)N(C)C(=O)[C@H]1OCC[C@H]1c1ccccc1)C(=O)N1CCC[C@H](N1)C(=O)OCC(C)(C)C2 [Compound A425]: 5.00 to 6.00

With those in mind, consider the next compound.
input: Give its pIC50 value. Item: CCn1c(-c2cccnc2[C@H](C)OC)c2c3cc(ccc31)-c1csc(n1)C[C@H](NC(=O)[C@H](C(C)C)N(C)C(=O)N1CC3CCC1CN3C)C(=O)N1CCC[C@H](N1)C(=O)OCC(C)(C)C2 [Compound A308]
output: 6.00 to 7.00

====

- ASSAY_TARGET: KRAS G12C (Homo sapiens (Human), UniProt P01116+P62937, G12C)
- Sequence (P01116-2 other isoform, or with tags, fused parts or gaps G12C): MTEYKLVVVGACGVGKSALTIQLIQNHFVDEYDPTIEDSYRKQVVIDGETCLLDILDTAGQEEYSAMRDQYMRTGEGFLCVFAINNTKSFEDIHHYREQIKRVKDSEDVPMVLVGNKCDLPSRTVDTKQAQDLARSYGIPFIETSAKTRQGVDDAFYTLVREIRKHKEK
- Sequence (P62937 whole entry): as the sequence (P62937 whole entry) above
- ASSAY_DETAILS: Ras-Raf disruption/FRET/MOA assay (BRAF RBD, Cyclophilin A)
- Format: biochemical
- MEASUREMENT_CONTEXT: read-out: KRAS G12C FRET IC50
pIC50: −log10 of the molar value.
Property: pIC50; scope: individual compounds

// solved cases for pIC50 follow
CCn1c(-c2cnccc2COC)c2c3cc(ccc31)-c1cc(O)cc(c1)C[C@H](NC(=O)[C@H](C(C)C)N(C)C(=O)[C@H]1CNC[C@H]1C(F)(F)F)C(=O)N1CCC[C@H](N1)C(=O)OCC(C)(C)C2: 7.00 to 8.00
CCn1c(-c2cccnc2[C@H](C)OC)c2c3cc(ccc31)-c1cccc(c1)C[C@H](NC(=O)[C@H](C(C)C)N(C)C(=O)N1CC(OC)C1)C(=O)N1CCC[C@H](N1)C(=O)OCC(C)(C)C2: 6.00 to 7.00
CCn1c(-c2cnccc2COC)c2c3cc(ccc31)-c1cc(O)cc(c1)C[C@H](NC(=O)[C@H](C(C)C)N(C)C(=O)N1CCN(C)CC1)C(=O)N1CCC[C@H](N1)C(=O)OCC(C)(C)C2: 6.00 to 7.00

input: Return reported pIC50; argument: `CCn1c(-c2cc(N3CCN(C)CC3)cnc2[C@H](C)OC)c2c3cc(ccc31)-c1csc(n1)C[C@H](NC(=O)[C@H](C(C)C)N(C)C(=O)[C@H]1CCCS1(=O)=O)C(=O)N1CCC[C@H](N1)C(=O)OCC(C)(C)C2`
output: 6.00 to 7.00
